tested on: Gli-Luc/MEF cells; assay: Gli-Luc/MEF assay; format: cell-based, mouse; settings: Mus musculus, MEF; Shh-stimulated luciferase, 48 hours
READOUT: pIC50
Convention used: pIC50 is expressed as -log10 of the molar concentration.

Request: Give the measured pIC50 of Cc1cccnc1-c1cc(N2CCC(CS(C)(=O)=O)CC2)ncc1Cl [Example A-51] .
Result: 7.63

Request: Would you kindly repeat that for Cc1cccnc1-c1cc(N2CCC(C(=O)NC3CCOCC3)CC2)ncc1Cl [Example A-77] ?
Result: 7.32

Request: Would you kindly repeat that for Cc1cc(F)cnc1-c1cc(N2CCN(C(=O)CCS(C)(=O)=O)CC2)ncc1Cl [Example A-151] ?
Result: 8.06

Request: Would you kindly repeat that for Cc1ccc(-c2cc(N3CCC(NS(C)(=O)=O)CC3)ncc2Cl)nc1 [Example A-9] ?
Result: 6.65

Request: Would you kindly repeat that for Cc1cc(F)cnc1-c1cc(N2CCC(NS(=O)(=O)CC(C)(C)O)CC2)ncc1Cl [Example A-153] ?
Result: 8.33

Request: Would you kindly repeat that for Cc1cccnc1-c1cc(N2CCN(C(=O)CC(C)(C)O)CC2)ncc1Cl [Example A-47] ?
Result: 7.44

Request: Would you kindly repeat that for Cc1cnc(-c2cc(N3CCC(CS(N)(=O)=O)CC3)ncc2Cl)c(C)c1 [Example A-118] ?
Result: 8.07

Request: Would you kindly repeat that for CS(=O)(=O)NC1CCN(c2ncc(Cl)c(-c3ccccn3)n2)CC1 [Example A-45] ?
Result: 7.24

Request: Would you kindly repeat that for Cc1cccnc1-c1cc(N2CCC(C(=O)N3CC(S(=O)(=O)CC4CC4)C3)CC2)ncc1Cl [Example A-62] ?
Result: 6.97

Request: Would you kindly repeat that for Cc1cccnc1-c1cc(N2CCC(C(=O)NCCS(C)(=O)=O)CC2)ncc1Cl [Example A-67] ?
Result: 6.79

Request: Would you kindly repeat that for Cc1cccnc1-c1cc(N2CCC(CNS(C)(=O)=O)CC2)ncc1Cl [Example A-48] ?
Result: 7.32

Request: Would you kindly repeat that for COCC(=O)NC1CCN(c2cc(-c3ncc(C)cc3C)c(Cl)cn2)CC1 [Example A-135] ?
Result: 8.12

Request: Would you kindly repeat that for COc1ccccc1CNC(=O)C1CCN(c2cc(-c3ncccc3C)c(Cl)cn2)CC1 [Example A-79] ?
Result: 7.52

Request: Would you kindly repeat that for Cc1cccnc1-c1cc(N2CCC(C(=O)NCC3(O)CCC3)CC2)ncc1Cl [Example A-64] ?
Result: 6.96

Request: Would you kindly repeat that for COC(=O)N1CCN(c2cc(-c3ncc(C)cc3C)c(Cl)cn2)CC1 [Example A-101] ?
Result: 7.52

Request: Would you kindly repeat that for Cc1cccnc1-c1cc(N2CCC(C(=O)NC3CCCCC3O)CC2)ncc1Cl (stereo not shown) [Example A-72] ?
Result: 7.65

Request: Would you kindly repeat that for COc1cnc(NC(=O)C2CCN(c3cc(-c4ncccc4C)c(Cl)cn3)CC2)cn1 [Example A-59] ?
Result: 7.67

Request: Would you kindly repeat that for Cc1cccnc1-c1cc(N2CCC(C(=O)N3CCCC(O)C3CO)CC2)ncc1Cl (stereo not shown) [Example A-86] ?
Result: 6.94

Request: Would you kindly repeat that for Cc1ccc(-c2nc(N3CCC(NS(C)(=O)=O)CC3)ccc2Br)nc1 [Example A-120] ?
Result: 7.54

Request: Would you kindly repeat that for Cc1cc(C#N)cnc1-c1cc(N2CCC(NS(C)(=O)=O)CC2)ncc1Cl [Example A-125] ?
Result: 7.49

Request: Would you kindly repeat that for Cc1cnc(-c2ccnc(N3CCN(C(=O)CN4C[C@@H](C)O[C@@H](C)C4)CC3)c2)c(C)c1 [Example A-156] ?
Result: 8.18

Request: Would you kindly repeat that for Cc1cccnc1-c1cc(N2CCC(NCCS(C)(=O)=O)CC2)ncc1Cl [Example A-49] ?
Result: 7.36

Request: Would you kindly repeat that for Cc1cnc(-c2cc(N3CCC(O)CC3)ncc2Cl)c(C)c1 [Example A-94] ?
Result: 7.55

Request: Would you kindly repeat that for Cc1cccnc1-c1cc(N2CCC(C(=O)N[C@H]3CCN(S(C)(=O)=O)C3)CC2)ncc1Cl [Example A-60] ?
Result: 7.24

Request: Would you kindly repeat that for Cc1cccnc1-c1cc(N2CCC(C(=O)N[C@@H]3c4ccccc4C[C@@H]3O)CC2)ncc1Cl [Example A-58] ?
Result: 7.41

Request: Would you kindly repeat that for Cc1cc(F)cnc1-c1cc(N2CCC(NS(=O)(=O)CCO)CC2)ncc1Cl [Example A-149] ?
Result: 8.00

Request: Would you kindly repeat that for Cc1cccnc1-c1cc(N2CCC(NS(C)(=O)=O)CC2)ncc1Cl [Example A-8] ?
Result: 7.41

Request: Would you kindly repeat that for Cc1cc(F)cnc1-c1cc(N2CCN(S(=O)(=O)CCO)CC2)ncc1Cl [Example A-150] ?
Result: 7.53

Request: Would you kindly repeat that for Cc1cnc(-c2cc(N3CCN(C(=O)CCO)CC3)ncc2Cl)c(C)c1 [Example A-106] ?
Result: 7.44

Request: Would you kindly repeat that for COCCOCC1CCN(c2cc(-c3ncccc3C)c(Cl)cn2)CC1 [Example A-37] ?
Result: 7.01

Request: Would you kindly repeat that for Cc1cnc(-c2cc(N3CCC(CS(C)(=O)=O)CC3)ncc2Cl)c(C)c1 [Example A-98] ?
Result: 8.03

Request: Would you kindly repeat that for COCC(=O)N1CCN(c2cc(-c3ncccc3C)c(Cl)cn2)CC1 [Example A-28] ?
Result: 6.84

Request: Would you kindly repeat that for Cc1cc(Cl)cnc1-c1cc(N2CCC(NS(C)(=O)=O)CC2)ncc1Cl [Example A-109] ?
Result: 8.17

Request: Would you kindly repeat that for Cc1cccnc1-c1nc(N2CCC(NS(C)(=O)=O)CC2)ncc1Cl [Example A-34] ?
Result: 7.68

----------
target: UniProtKB Q99835
With a cut-off of 70 nM, any IC50 strictly below it is called YES; any IC50 meeting it or above is called NO.

Request: Would you kindly verify if IC50 of CC(=O)N1CCN(c2cc(-c3ncccc3C)c(Cl)cn2)CC1 is strictly less than 70 nM?
Result: NO

Request: Would you kindly repeat that for Cc1cccnc1-c1cc(N2CCC(C(=O)N[C@@H]3c4ccccc4C[C@@H]3O)CC2)ncc1Cl ?
Result: NO

Request: Would you kindly repeat that for Cc1cccnc1-c1nc(N2CCC(NS(C)(=O)=O)CC2)ncc1Cl ?
Result: YES

Request: Would you kindly repeat that for Cc1cc(C#N)cnc1-c1cc(N2CCC(NS(C)(=O)=O)CC2)ncc1Cl ?
Result: NO

Request: Would you kindly repeat that for Cc1cccnc1-c1cc(N2CCN(C(=O)CC(C)(C)O)CC2)ncc1Cl ?
Result: YES

Request: Would you kindly repeat that for Cc1cccnc1-c1cc(N2CCN(S(C)(=O)=O)CC2)ncc1Cl ?
Result: NO

Request: Would you kindly repeat that for Cc1cccnc1-c1cc(N2CCC(C(=O)NC3CCOC4(CCN(C)CC4)C3)CC2)ncc1Cl (centres unmarked) ?
Result: NO

Request: Would you kindly repeat that for Cc1cccnc1-c1cc(N2CCC(C(=O)N3CCN(c4ccc(O)nn4)CC3)CC2)ncc1Cl ?
Result: YES

Request: Would you kindly repeat that for Cc1cnc(-c2c(Cl)cnc(N3CCC(NC(=O)CCS(C)(=O)=O)CC3)c2F)c(C)c1 ?
Result: YES

Request: Would you kindly repeat that for Cc1cccnc1-c1cc(N2CCC(C(=O)NC3CCOC3)CC2)ncc1Cl (centres unmarked) ?
Result: NO

Request: Would you kindly repeat that for Cc1cccnc1-c1cc(N2CCC(C(=O)NC3(c4ccccn4)CC3)CC2)ncc1Cl ?
Result: YES

Request: Would you kindly repeat that for Cc1cc(F)cnc1-c1cc(N2CCC(NC(=O)CCS(C)(=O)=O)CC2)ncc1Cl ?
Result: YES

Request: Would you kindly repeat that for CCN(CC)C(=O)COC1CCN(c2cc(-c3ncccc3C)c(Cl)cn2)CC1 ?
Result: NO

Request: Would you kindly repeat that for CN(C)CC(=O)NC1CCN(c2ccc(Cl)c(-c3ccccn3)n2)CC1 ?
Result: YES

Request: Would you kindly repeat that for Cc1cnc(-c2cc(N3CCN(C(=O)CC(C)(C)O)CC3)ncc2Cl)c(C)c1 ?
Result: YES

Request: Would you kindly repeat that for Cc1cc(F)cnc1-c1cc(N2CCC(NC(=O)CN(C)C)CC2)ncc1Cl ?
Result: YES

----------
assay: Assessment of brain penetration in rats; assay type: in vivo; details: Wistar, rat, CSF / unbound plasma, subcutaneous, 10 mg/kg; rats, within 4 hours post dose; read-out: unbound compound in the plasma able to cross the blood brain barrier
READOUT: Kp

Request: Give the measured Kp of Cc1cnc(-c2cc(N3CCN(C(=O)CCS(C)(=O)=O)CC3)ncc2Cl)c(C)c1 .
Result: ~0.4

----------
biological target: human Smo (Homo sapiens (Human))
Sequence (Q99835 181-787): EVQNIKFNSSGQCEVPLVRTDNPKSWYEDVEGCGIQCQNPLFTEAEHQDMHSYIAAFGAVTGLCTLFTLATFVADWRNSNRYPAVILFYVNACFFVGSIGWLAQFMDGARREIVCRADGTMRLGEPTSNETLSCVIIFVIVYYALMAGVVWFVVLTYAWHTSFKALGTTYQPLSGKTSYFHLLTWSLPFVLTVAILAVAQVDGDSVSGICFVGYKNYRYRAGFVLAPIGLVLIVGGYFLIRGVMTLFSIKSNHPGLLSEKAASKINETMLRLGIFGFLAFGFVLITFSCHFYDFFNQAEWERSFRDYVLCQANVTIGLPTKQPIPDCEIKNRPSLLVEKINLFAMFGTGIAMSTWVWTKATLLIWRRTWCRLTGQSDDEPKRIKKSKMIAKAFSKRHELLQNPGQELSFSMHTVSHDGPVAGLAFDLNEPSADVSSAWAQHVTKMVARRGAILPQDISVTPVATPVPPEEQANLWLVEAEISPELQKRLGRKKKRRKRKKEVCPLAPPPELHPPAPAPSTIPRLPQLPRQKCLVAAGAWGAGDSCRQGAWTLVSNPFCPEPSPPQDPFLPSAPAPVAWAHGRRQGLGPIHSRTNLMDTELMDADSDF
pIC50: −log10 of the molar value.
Label rule, in plain words: pIC50 of 7 and up is Satisfied, under 7 is Not satisfied.

Request: Evaluate COCCS(=O)(=O)N1CCN(c2ccc(Cl)c(-c3ccccn3)n2)CC1 : pIC50 at minimum 7?
Result: Not satisfied

Request: Would you kindly repeat that for Cc1cc(F)cnc1-c1cc(N2CCC(NS(=O)(=O)CC(C)(C)O)CC2)ncc1Cl ?
Result: Satisfied

Request: Would you kindly repeat that for COCC(=O)N1CCN(c2cc(-c3ncccc3C)c(Cl)cn2)CC1 ?
Result: Not satisfied

Request: Would you kindly repeat that for Cc1cccnc1-c1cc(N2CCC(C(=O)NC3CCCCC3O)CC2)ncc1Cl (stereo not drawn) ?
Result: Satisfied

Request: Would you kindly repeat that for Cc1cnc(-c2ccnc(N3CCN(C(=O)CN4CCOCC4)CC3)c2)c(C)c1 ?
Result: Satisfied

Request: Would you kindly repeat that for CCS(=O)(=O)NC1CCN(c2ccc(Cl)c(-c3ccccn3)n2)CC1 ?
Result: Satisfied

Request: Would you kindly repeat that for Cc1cccnc1-c1nc(N2CCN(S(C)(=O)=O)CC2)ncc1Cl ?
Result: Not satisfied

Request: Would you kindly repeat that for Cc1cnc(-c2cc(N3CCC(NC(=O)CCS(C)(=O)=O)CC3)ncc2Cl)c(C)c1 ?
Result: Satisfied

Request: Would you kindly repeat that for Cc1cccnc1-c1cc(N2CCC(C(=O)NC3CCS(=O)(=O)CC3)CC2)ncc1Cl ?
Result: Satisfied

Request: Would you kindly repeat that for Cc1cnc(-c2cc(N3CCC(NS(=O)(=O)C4CC4)CC3)ncc2Cl)c(C)c1 ?
Result: Satisfied

Request: Would you kindly repeat that for COC(=O)N1CCN(c2cc(-c3ncccc3C)c(Cl)cn2)CC1 ?
Result: Not satisfied

Request: Would you kindly repeat that for CS(=O)(=O)NC1CCN(c2ccc(Cl)c(-c3ccccn3)n2)CC1 ?
Result: Satisfied

Request: Would you kindly repeat that for Cc1cc(F)cnc1-c1cc(N2CCC(NS(=O)(=O)CCO)CC2)ncc1Cl ?
Result: Satisfied

Request: Would you kindly repeat that for CS(=O)(=O)NC1CCN(c2cc(-c3ccc(Cl)cn3)c(Cl)cn2)CC1 ?
Result: Satisfied

Request: Would you kindly repeat that for Cc1cnc(-c2cc(N3CCN(C(=O)CO)CC3)ncc2Cl)c(C)c1 ?
Result: Satisfied

Request: Would you kindly repeat that for Cc1cccnc1-c1cc(N2CCC(NCCS(C)(=O)=O)CC2)ncc1Cl ?
Result: Satisfied

Request: Would you kindly repeat that for COCC(=O)NC1CCN(c2cc(-c3ncc(C)cc3C)c(Cl)cn2)CC1 ?
Result: Satisfied

Request: Would you kindly repeat that for Cc1cccnc1-c1cc(N2CCC(C(=O)N3CC(S(=O)(=O)CC4CC4)C3)CC2)ncc1Cl ?
Result: Not satisfied

Request: Would you kindly repeat that for Cc1cnc(-c2cc(N3CCC(NS(C)(=O)=O)CC3)ncc2Cl)c(C)c1 ?
Result: Satisfied

Request: Would you kindly repeat that for Cc1cnc(-c2cc(N3CCC(CS(C)(=O)=O)CC3)ncc2Cl)c(C)c1 ?
Result: Satisfied

Request: Would you kindly repeat that for Cc1cccnc1-c1nc(N2CCC(NS(C)(=O)=O)CC2)ccc1Cl ?
Result: Satisfied
